- Test system: HL-60(TB) leukemia
- assay_summary: NCI tumour cell line growth inhibition, 48 h
endpoint: TGI (µM)
Give a bare numeral; the unit µM is implied.

* Cc1cc(N(CCOS(C)(=O)=O)CCOS(C)(=O)=O)ccc1C=Nc1ccc(-c2nc(Cc3ccccc3)sc2C)cc1 | 28.9

Shifting focus to the compound that follows.
[Q] Form entry - test system: HL-60(TB) leukemia; read-out: TGI; compound: CC1OC(O[C@H]2C[C@@H](O)[C@]3(CO)[C@H]4[C@H](O)C[C@]5(C)[C@@H](C6=CC(=O)OC6)CC[C@]5(O)[C@@H]4CC[C@]3(O)C2)C(O)C(O)C1O (some centres undefined)
[A] 41.6

Hello, the source for this data is PubChem BioAssay (NCI), in case you need it.
